molecular target: EP2 (Homo sapiens); assay: EP2 binding assay
Sequence (P43116 whole entry): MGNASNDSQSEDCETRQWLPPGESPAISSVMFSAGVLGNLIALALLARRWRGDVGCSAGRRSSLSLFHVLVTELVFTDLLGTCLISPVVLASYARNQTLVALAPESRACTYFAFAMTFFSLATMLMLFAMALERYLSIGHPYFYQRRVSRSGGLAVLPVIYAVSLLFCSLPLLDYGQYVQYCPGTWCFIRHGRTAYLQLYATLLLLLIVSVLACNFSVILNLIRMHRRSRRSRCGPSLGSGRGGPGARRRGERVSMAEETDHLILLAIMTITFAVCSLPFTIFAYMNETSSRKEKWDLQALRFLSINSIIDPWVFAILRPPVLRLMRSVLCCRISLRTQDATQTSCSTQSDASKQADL
pEC50: −log10 of the molar value.
propertyName: pEC50

molecule="CCCCCC(O)c1ccc(N2C(COCc3ccc(C(=O)O)s3)CCS2(=O)=O)cc1 (centres unmarked)" endpointvalue=5.53
molecule="CCCCCC(=O)c1ccc(N2C(COCc3ccc(C(=O)O)s3)CCS2(=O)=O)cc1 (centres unmarked)" endpointvalue=5.92

###

biological target: UniProt:P43116; test: EP2 Ca2+ signal assay; format: cell-based
pEC50: −log10 of the molar value.
propertyName: pEC50

compound="CCCCCC(O)c1ccc(N2C(COCc3ccc(C(=O)O)s3)CCS2(=O)=O)cc1 (centres unmarked)" endpointvalue=5.08
compound="CCCCCC(=O)c1ccc(N2C(COCc3ccc(C(=O)O)s3)CCS2(=O)=O)cc1 (centres unmarked)" endpointvalue=5.27
